// provenance: patent US4719302A

- Tested on: Trichophyton mentagrophytes ATCC 9533
- method: antifungal activity, disc agar assay (Minimum Inhibitory Concentration), Trichophyton mentagrophytes
- Type: cell-based
- assaySetup: ATCC9533; Trichophyton Mentagrophytes ATCC 9533; read-out: Minimum Inhibitory Concentration
quantityMeasured: MIC

// returns reported MIC for input `CCOC(=O)c1c[nH]c2c(cc(F)c3c2c(=O)c(C(=O)O)cn3CC)c1=O`
> 256 µg/mL

Can you look up the measured MIC of `CCOC(=O)c1c[nH]c2c(F)cc3c(=O)c(C(=O)O)cn(CC)c3c2c1=O` for me?
64 µg/mL

Can you share its MIC? I mean this compound: `CCOC(=O)c1c[nH]c2c(cc(F)c3c2c(=O)c(C(=O)OCC)cn3CC)c1=O`
> 64 µg/mL

MIC for `CCOC(=O)c1cn(CC)c2c(cc(F)c3c2c(=O)c(C(=O)OCC)cn3CC)c1=O` ?
> 64 µg/mL

I'd like to know its MIC. The compound in question is `CCn1cc(C(=O)O)c(=O)c2c1c(F)cc1c(=O)c(C(=O)O)cn(CC)c12`
> 64 µg/mL
